# system-tested: UniProt P21397
# Sequence (P21397 whole entry): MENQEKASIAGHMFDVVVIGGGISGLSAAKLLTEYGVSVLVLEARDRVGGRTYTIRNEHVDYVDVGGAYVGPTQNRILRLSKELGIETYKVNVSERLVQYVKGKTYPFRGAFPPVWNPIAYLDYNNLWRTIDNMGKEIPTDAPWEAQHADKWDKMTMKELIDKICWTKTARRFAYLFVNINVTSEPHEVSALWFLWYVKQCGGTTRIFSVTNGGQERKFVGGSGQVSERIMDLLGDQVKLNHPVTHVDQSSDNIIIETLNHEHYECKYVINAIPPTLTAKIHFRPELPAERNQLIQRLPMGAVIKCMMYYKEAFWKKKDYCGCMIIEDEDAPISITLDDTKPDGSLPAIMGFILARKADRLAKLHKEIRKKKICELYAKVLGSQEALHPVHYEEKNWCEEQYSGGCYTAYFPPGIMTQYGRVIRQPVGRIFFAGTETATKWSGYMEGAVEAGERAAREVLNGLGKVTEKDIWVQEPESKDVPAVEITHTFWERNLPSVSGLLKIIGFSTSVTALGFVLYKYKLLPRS
# assay-details: Inhibition of recombinant human MAOA expressed in insect cell microsomes using kynuramine as substrate preincubated with substrate for 30 mins followed by enzyme addition and measured after 20 mins by fluorescence spectrophotometry
Measured IC50 values are reported for all entries that follow.

1. c1cc(C2=NCCN2)cc(-c2noc(-c3cccs3)n2)c1 88.3 µM
2. c1ncn(Cc2ccc(-c3noc(-c4ccc(C5=NCCN5)cc4)n3)cc2)n1 24.6 µM

Now examine the next entry.
Return reported IC50; argument: "Cn1ccnc1SCc1ccc(-c2noc(-c3ccc(C4=NCCN4)cc3)n2)cc1"
12.4 µM
